Value source: patent US20250332112A1

assay-explanation: Particle characteristics of LNPs containing EGFP mRNA and novel ionizable lipids
Format: physicochemical
test-context: Table 21; EGFP mRNA LNP 1.6:54.6:32.8:10.9
measured-metric: Final Product % EE

[
  {
    "compound": "CCCCCC/C=C\\CCON(C(=O)CCCN(C)C)C(CCCCCCCCCC)CCCCCCC(=O)OCCC(CCCCC)CCCCC (centres unmarked)",
    "val": "98%"
  },
  {
    "compound": "CCCCCCCCCCN(C(=O)CCCN(C)C)C(CCCCCCCCC)CCCCCCC(F)(F)C(=O)OC(CCCCCCC)CCCCCCC (centres unmarked)",
    "val": "98%"
  },
  {
    "compound": "CCCCCC/C=C\\CCON(C(=O)CCCCN(C)C)C(CCCCCCCCCC)CCCCCCC(=O)OCCC(CCCCC)CCCCC (centres unmarked)",
    "val": "98%"
  },
  {
    "compound": "CCCCC/C=C\\CCCC(CCC/C=C\\CCCCC)C(CCC/C=C\\CCCCC)OC(=O)CCCCN(C)C (centres unmarked) [Compound 13-B43, reference compound]",
    "val": "97%"
  },
  {
    "compound": "CCCCCCCCCCN(C(=O)CCCN(C)C)C(CCCCCCCCC)CCCCC(F)(F)C(=O)OCC(CCCCCC)CCCCCCCC (centres unmarked)",
    "val": "98%"
  }
]
